studyConditions: in isobutanol, 313.15 K
recordedEndpoint: solubility (mole fraction)
Numbers only.

Query: Which solubility (mole fraction) reading was recorded for the molecule `O=[N+]([O-])c1cn[nH]c1[N+](=O)[O-]` ?
Result: 0.438

---

studyConditions: in isopentanol, 293.15 K
recordedEndpoint: solubility (mole fraction)
Numbers only.

Query: # solubility (mole fraction) lookup, item `O=[N+]([O-])c1cn[nH]c1[N+](=O)[O-]`
Result: 0.29

---

studyConditions: in acetonitrile, 323.15 K
recordedEndpoint: solubility (mole fraction)
Numbers only.

Query: Find the recorded solubility (mole fraction) belonging to `O=[N+]([O-])c1cn[nH]c1[N+](=O)[O-]` and report it.
Result: 0.133

---

studyConditions: in isopentanol, 313.15 K
recordedEndpoint: solubility (mole fraction)
Answers are plain numbers.

Query: Which solubility (mole fraction) value is on record for `O=[N+]([O-])c1cn[nH]c1[N+](=O)[O-]` ?
Result: 0.408

---

studyConditions: in n-pentanol, 303.15 K
recordedEndpoint: solubility (mole fraction)

Query: Look at this molecule and give its reported solubility (mole fraction). `O=[N+]([O-])c1cn[nH]c1[N+](=O)[O-]`
Result: 0.465

---

studyConditions: in n-propanol, 323.15 K
recordedEndpoint: solubility (mole fraction)
Numbers only.

Query: Report solubility (mole fraction) for `O=[N+]([O-])c1cn[nH]c1[N+](=O)[O-]` please.
Result: 0.803

---

studyConditions: in n-propanol, 318.15 K
recordedEndpoint: solubility (mole fraction)
Answers are plain numbers.

Query: Need solubility (mole fraction) of `O=[N+]([O-])c1cn[nH]c1[N+](=O)[O-]` , thanks.
Result: 0.7

---

studyConditions: in acetonitrile, 298.15 K
recordedEndpoint: solubility (mole fraction)
Give bare numbers.

Query: # get_value(readout='solubility (mole fraction)', item= `O=[N+]([O-])c1cn[nH]c1[N+](=O)[O-]` )
Result: 0.0912

---

studyConditions: in n-propanol, 293.15 K
recordedEndpoint: solubility (mole fraction)

Query: # get_value(readout='solubility (mole fraction)', item= `O=[N+]([O-])c1cn[nH]c1[N+](=O)[O-]` )
Result: 0.412

---

studyConditions: in acetonitrile, 318.15 K
recordedEndpoint: solubility (mole fraction)
Numbers only.

Query: // lookup solubility (mole fraction) for `O=[N+]([O-])c1cn[nH]c1[N+](=O)[O-]`
Result: 0.12

---

studyConditions: in THF, 293.15 K
recordedEndpoint: solubility (mole fraction)
One number for each entry.

Query: Give its solubility (mole fraction) value. Item: `O=[N+]([O-])c1cn[nH]c1[N+](=O)[O-]`
Result: 0.598

---

studyConditions: in isopentanol, 323.15 K
recordedEndpoint: solubility (mole fraction)
One number for each entry.

Query: solubility (mole fraction) lookup needed for `O=[N+]([O-])c1cn[nH]c1[N+](=O)[O-]` , thanks.
Result: 0.508

---

studyConditions: in 2-butanone, 308.15 K
recordedEndpoint: solubility (mole fraction)
One number for each entry.

Query: Tell me the measured solubility (mole fraction) of `O=[N+]([O-])c1cn[nH]c1[N+](=O)[O-]` , please.
Result: 0.554

---

studyConditions: in 2-butanone, 298.15 K
recordedEndpoint: solubility (mole fraction)
Answers are plain numbers.

Query: Field request: solubility (mole fraction) | item: `O=[N+]([O-])c1cn[nH]c1[N+](=O)[O-]`
Result: 0.498

---

studyConditions: in n-pentanol, 283.15 K
recordedEndpoint: solubility (mole fraction)
Answers are plain numbers.

Query: Recorded solubility (mole fraction) for `O=[N+]([O-])c1cn[nH]c1[N+](=O)[O-]` , please?
Result: 0.266

---

studyConditions: in isopentanol, 308.15 K
recordedEndpoint: solubility (mole fraction)
Answers are plain numbers.

Query: # get_value(readout='solubility (mole fraction)', item= `O=[N+]([O-])c1cn[nH]c1[N+](=O)[O-]` )
Result: 0.376

---

studyConditions: in n-propanol, 283.15 K
recordedEndpoint: solubility (mole fraction)
One number for each entry.

Query: Using the record for `O=[N+]([O-])c1cn[nH]c1[N+](=O)[O-]` , report its solubility (mole fraction).
Result: 0.317

---

studyConditions: in epichlorohydrin, 293.15 K
recordedEndpoint: solubility (mole fraction)
Give bare numbers.

Query: Bench note: what solubility (mole fraction) did `O=[N+]([O-])c1cn[nH]c1[N+](=O)[O-]` show?
Result: 0.0422

---

studyConditions: in ethyl acetate, 303.15 K
recordedEndpoint: solubility (mole fraction)

Query: Could you share which solubility (mole fraction) value was measured for `O=[N+]([O-])c1cn[nH]c1[N+](=O)[O-]` ?
Result: 0.125

---

studyConditions: in n-pentanol, 318.15 K
recordedEndpoint: solubility (mole fraction)
One number for each entry.

Query: Requested read-out: solubility (mole fraction). Entry: `O=[N+]([O-])c1cn[nH]c1[N+](=O)[O-]`
Result: 0.631

---

studyConditions: in chloroform, 288.15 K
recordedEndpoint: solubility (mole fraction)
Numbers only.

Query: Give its solubility (mole fraction) value. Item: `O=[N+]([O-])c1cn[nH]c1[N+](=O)[O-]`
Result: 0.00094

---

studyConditions: in epichlorohydrin, 308.15 K
recordedEndpoint: solubility (mole fraction)
Give bare numbers.

Query: Can you look up the measured solubility (mole fraction) of `O=[N+]([O-])c1cn[nH]c1[N+](=O)[O-]` for me?
Result: 0.0536

---

studyConditions: in 2-butanone, 318.15 K
recordedEndpoint: solubility (mole fraction)
One number for each entry.

Query: What measured solubility (mole fraction) goes with `O=[N+]([O-])c1cn[nH]c1[N+](=O)[O-]` ?
Result: 0.602

---

studyConditions: in isopentanol, 318.15 K
recordedEndpoint: solubility (mole fraction)
Give bare numbers.

Query: Entry `O=[N+]([O-])c1cn[nH]c1[N+](=O)[O-]` has what solubility (mole fraction)?
Result: 0.46

---

studyConditions: in THF, 283.15 K
recordedEndpoint: solubility (mole fraction)

Query: solubility (mole fraction); subject: `O=[N+]([O-])c1cn[nH]c1[N+](=O)[O-]`
Result: 0.51

---

studyConditions: in isobutanol, 323.15 K
recordedEndpoint: solubility (mole fraction)

Query: Give the measured solubility (mole fraction) of `O=[N+]([O-])c1cn[nH]c1[N+](=O)[O-]` .
Result: 0.539

---

studyConditions: in acetonitrile, 288.15 K
recordedEndpoint: solubility (mole fraction)
Answers are plain numbers.

Query: Which solubility (mole fraction) is listed for `O=[N+]([O-])c1cn[nH]c1[N+](=O)[O-]` ?
Result: 0.0772

---

studyConditions: in isopentanol, 303.15 K
recordedEndpoint: solubility (mole fraction)
Answers are plain numbers.

Query: Any idea what solubility (mole fraction) was measured for `O=[N+]([O-])c1cn[nH]c1[N+](=O)[O-]` ?
Result: 0.351

---

studyConditions: in ethyl acetate, 298.15 K
recordedEndpoint: solubility (mole fraction)
Give bare numbers.

Query: Give its solubility (mole fraction) value. Item: `O=[N+]([O-])c1cn[nH]c1[N+](=O)[O-]`
Result: 0.103

---

studyConditions: in ethyl acetate, 318.15 K
recordedEndpoint: solubility (mole fraction)

Query: So what's the measured solubility (mole fraction) for this one? `O=[N+]([O-])c1cn[nH]c1[N+](=O)[O-]`
Result: 0.193

---

studyConditions: in chloroform, 313.15 K
recordedEndpoint: solubility (mole fraction)
Answers are plain numbers.

Query: Given `O=[N+]([O-])c1cn[nH]c1[N+](=O)[O-]` , state its recorded solubility (mole fraction).
Result: 0.0035

---

studyConditions: in epichlorohydrin, 298.15 K
recordedEndpoint: solubility (mole fraction)
Give bare numbers.

Query: Using the record for `O=[N+]([O-])c1cn[nH]c1[N+](=O)[O-]` , report its solubility (mole fraction).
Result: 0.0467

---

studyConditions: in n-pentanol, 298.15 K
recordedEndpoint: solubility (mole fraction)
Give bare numbers.

Query: Item under review: `O=[N+]([O-])c1cn[nH]c1[N+](=O)[O-]` . Reported solubility (mole fraction)?
Result: 0.412

---

studyConditions: in 2-butanone, 303.15 K
recordedEndpoint: solubility (mole fraction)
One number for each entry.

Query: Request the reported solubility (mole fraction) associated with `O=[N+]([O-])c1cn[nH]c1[N+](=O)[O-]`
Result: 0.525

---

studyConditions: in isobutanol, 288.15 K
recordedEndpoint: solubility (mole fraction)
Give bare numbers.

Query: # query: solubility (mole fraction) of entry `O=[N+]([O-])c1cn[nH]c1[N+](=O)[O-]`
Result: 0.264

---

studyConditions: in epichlorohydrin, 303.15 K
recordedEndpoint: solubility (mole fraction)
Answers are plain numbers.

Query: solubility (mole fraction); subject: `O=[N+]([O-])c1cn[nH]c1[N+](=O)[O-]`
Result: 0.0498

---

studyConditions: in acetonitrile, 308.15 K
recordedEndpoint: solubility (mole fraction)
Numbers only.

Query: Which solubility (mole fraction) value is on record for `O=[N+]([O-])c1cn[nH]c1[N+](=O)[O-]` ?
Result: 0.105

// provenance: BigSolDB 2.1
